MEASUREMENT_DESCRIPTION: Cytotoxicity against human HEK293 cells assessed as inhibitory rate at 80 uM after 24 hrs by MTT assay
Assay type: cell-based
MEASUREMENT_CONDITIONS: read-out: INH
Could you please report measured cytotoxicity at 24 h, 80 µM for the items listed next?
// return numeric value only (unit: %, not printed)

The compound listed as COc1ccc2cccc(CCNC(=O)N3CCN(C(=O)OC(C)(C)C)CC3)c2c1 has a reported cytotoxicity at 24 h, 80 µM of 13.3

cytotoxicity at 24 h, 80 µM in this record for COc1ccc2cccc(CCNC(=O)/C(C)=C(\C)C(=O)O)c2c1 : 13.2

What the record says about COc1ccc2cccc(CCNC(=O)/C=C/C(=O)O)c2c1 : cytotoxicity at 24 h, 80 µM is 33

Item: COc1ccc2cccc(CCNC(=O)N(C)CCO)c2c1 | cytotoxicity at 24 h, 80 µM: 7.1

Recorded cytotoxicity at 24 h, 80 µM (compound COc1ccc2cccc(CCNC(=O)CC(C)(C)CC(=O)O)c2c1 ): 34.1

Reported cytotoxicity at 24 h, 80 µM for COc1ccc2cccc(CCNC(=O)N3CCN(C)CC3)c2c1 was 46.6

Recorded result, COc1ccc2cccc(CCNC(=O)N3CCCC3)c2c1 , cytotoxicity at 24 h, 80 µM: 28.4

cytotoxicity at 24 h, 80 µM reading for COc1ccc2cccc(CCNC(=O)N3CCC(c4ccccc4)CC3)c2c1 : 16.5

Note to self: cytotoxicity at 24 h, 80 µM recorded for CCN1CCN(C(=O)NCCc2cccc3ccc(OC)cc23)CC1 was 3.9

# compound COc1ccc2cccc(CCN3C(=O)CC(C)(C)CC3=O)c2c1 ; its cytotoxicity at 24 h, 80 µM = 41.9

COc1ccc2cccc(CCNC(=O)CC3(CC(=O)O)CCCC3)c2c1 has a reported cytotoxicity at 24 h, 80 µM of 13.4

Entry COc1ccc2cccc(CCNC(=O)N3CCC3)c2c1 ; cytotoxicity at 24 h, 80 µM = 28.4

// recorded cytotoxicity at 24 h, 80 µM for COc1ccc2cccc(CCN3C(=O)C(C)=C(C)C3=O)c2c1 : 9.6

COc1ccc2cccc(CCN3C(=O)CCC3=O)c2c1 has a reported cytotoxicity at 24 h, 80 µM of 8.1

So, COc1ccc2cccc(CCNC(=O)/C(Cl)=C(\Cl)C(=O)O)c2c1 ? Its cytotoxicity at 24 h, 80 µM was 18.6

Record COc1ccc2cccc(CCN3C(=O)C(Cl)=C(Cl)C3=O)c2c1 , field cytotoxicity at 24 h, 80 µM: 17.2

Lab note: measured cytotoxicity at 24 h, 80 µM of COc1ccc2cccc(CCNC(=O)N3CCCCC3)c2c1 was 16.6

For record COc1ccc2cccc(CCN3C(=O)c4ccc(Br)cc4C3=O)c2c1 the listed cytotoxicity at 24 h, 80 µM is 11.5

Query COc1ccc2cccc(CCNC(=O)CCC(=O)O)c2c1 yields cytotoxicity at 24 h, 80 µM of 13.9

Measured cytotoxicity at 24 h, 80 µM of COc1ccc2cccc(CCNC(C)=O)c2c1 : 26.6

###

Give Activity for every item shown.
Tested on: PC-12
MEASUREMENT_DESCRIPTION: Inhibition of corticosterone-induced rat PC12 cells lesions assessed as protection rate at 1.25 uM after 24 hrs by MTT assay
Assay type: functional
Design: scale not given: the % may be the effect or the level left
Write the number in % without appending the unit.

Assay PC-12, sample COc1ccc2cccc(CCN3C(=O)CC(C)(C)CC3=O)c2c1 , Activity read: -50.3

The observed Activity for COc1ccc2cccc(CCN3C(=O)c4ccc(Br)cc4C3=O)c2c1 when tested with PC-12 stands at -10.5

The observed Activity for COc1ccc2cccc(CCNC(=O)/C=C/C(=O)O)c2c1 when tested with PC-12 stands at 23.2

The measured Activity that COc1ccc2cccc(CCNC(=O)N3CCN(C(=O)OC(C)(C)C)CC3)c2c1 showed for PC-12 is 6.3

Readout Activity for COc1ccc2cccc(CCN3C(=O)CCC3=O)c2c1 , test system PC-12, was -16.8

Here COc1ccc2cccc(CCNC(=O)CC3(CC(=O)O)CCCC3)c2c1 was tested on PC-12, and its Activity came to -17.5

Observed Activity, PC-12, CNCCC(Oc1ccc(C(F)(F)F)cc1)c1ccccc1 (stereo unspecified) [FLUOXETINE] : 19.7

The molecule COc1ccc2cccc(CCNC(=O)N3CCC(c4ccccc4)CC3)c2c1 , tested on PC-12, showed Activity of 2.5

PC-12 assay, molecule COc1ccc2cccc(CCNC(=O)N3CCCCC3)c2c1 , recorded Activity = -11.5

Value (Activity, PC-12) for record COc1ccc2cccc(CCNC(=O)N(C)CCO)c2c1 = -19.5

Tested on PC-12: COc1ccc2cccc(CCN3C(=O)C(Cl)=C(Cl)C3=O)c2c1 . Observed Activity: -12.8

###

MEASUREMENT_DESCRIPTION: Cytotoxicity against human L02 cells assessed as inhibitory rate at 80 uM after 24 hrs by MTT assay
Type: cell-based
MEASUREMENT_CONDITIONS: read-out: INH
PROPERTY_MEASURED: cytotoxicity at 24 h, 80 µM (%)
Please reply with the bare figure in % and do not write the unit itself.

The value of cytotoxicity at 24 h, 80 µM measured for the compound COc1ccc2cccc(CCNC(=O)N3CCCCC3)c2c1 turned out to be 22.6

# cytotoxicity at 24 h, 80 µM (compound: COc1ccc2cccc(CCNC(=O)N3CCC(c4ccccc4)CC3)c2c1 ) is 8.6

Documented cytotoxicity at 24 h, 80 µM of COc1ccc2cccc(CCN3C(=O)CCC3=O)c2c1 : 8.5

So for CCN1CCN(C(=O)NCCc2cccc3ccc(OC)cc23)CC1 , the logged cytotoxicity at 24 h, 80 µM turned out to be 3.1

Lookup result for COc1ccc2cccc(CCN3C(=O)C(Cl)=C(Cl)C3=O)c2c1 ; measured cytotoxicity at 24 h, 80 µM: 3.4

Data point: COc1ccc2cccc(CCNC(=O)N3CCC3)c2c1 ; cytotoxicity at 24 h, 80 µM = 18.4

###

Kindly state cytotoxicity at 24 h, 80 µM for each of the entries shown.
MEASUREMENT_DESCRIPTION: Cytotoxicity against human L02 cells assessed as inhibitory rate at 80 uM after 24 hrs by MTT assay
Type: cell-based
MEASUREMENT_CONDITIONS: read-out: INH
All answers are understood in %, so give the number only.

cytotoxicity at 24 h, 80 µM measured on COc1ccc2cccc(CCN3C(=O)c4ccc(Br)cc4C3=O)c2c1 = 9.1

Short answer for COc1ccc2cccc(CCNC(=O)CC3(CC(=O)O)CCCC3)c2c1 : cytotoxicity at 24 h, 80 µM was 4.1

In plain terms, COc1ccc2cccc(CCNC(C)=O)c2c1 has a documented cytotoxicity at 24 h, 80 µM of 20.2

###

Test system: PC-12
MEASUREMENT_DESCRIPTION: Inhibition of corticosterone-induced rat PC12 cells lesions assessed as protection rate at 1.25 uM after 24 hrs by MTT assay
Assay type: functional
Parameters: scale not given: the % may be the effect or the level left
PROPERTY_MEASURED: Activity (%)
Entry rule: numbers only, all in %.

Activity on PC-12 for COc1ccc2cccc(CCNC(=O)N3CCN(C)CC3)c2c1 is 13.6

Reading of Activity for COc1ccc2cccc(CCNC(=O)/C(Cl)=C(\Cl)C(=O)O)c2c1 with PC-12: -8.4

Measured on PC-12, COc1ccc2cccc(CCNC(=O)CC(C)(C)CC(=O)O)c2c1 has a documented Activity of 6.3

Short answer on PC-12 for COc1ccc2cccc(CCNC(=O)CCC(=O)O)c2c1 , Activity: 11

Summary line: COc1ccc2cccc(CCNC(=O)/C(C)=C(\C)C(=O)O)c2c1 , PC-12, reported Activity = 2.8

// assay PC-12, entry CCN1CCN(C(=O)NCCc2cccc3ccc(OC)cc23)CC1 , Activity value = -7.7

Param item: COc1ccc2cccc(CCNC(=O)N3CCCC3)c2c1 ; param system: PC-12; output Activity: 9.8

Record for COc1ccc2cccc(CCNC(C)=O)c2c1 [AGOMELATINE] under target or system PC-12: Activity reported as 26.2

So the reported Activity for COc1ccc2cccc(CCN3C(=O)C(C)=C(C)C3=O)c2c1 , on PC-12, turned out to be 34.2

Record for COc1ccc2cccc(CCNC(=O)N3CCC3)c2c1 under target or system PC-12: Activity reported as 15.7

###

MEASUREMENT_DESCRIPTION: Octanol-water partition coefficient, log P of the compound
Format: physicochemical
PROPERTY_MEASURED: logP
I only need the number, thanks.

The value of logP measured for the compound COc1ccc2cccc(CCNC(=O)N3CCN(C(=O)OC(C)(C)C)CC3)c2c1 turned out to be 1.06

Lab note: COc1ccc2cccc(CCNC(=O)N3CCCCC3)c2c1 gave logP of 2.81

Input COc1ccc2cccc(CCNC(=O)N3CCC3)c2c1 . Output logP: 1.56

The recorded logP for entry COc1ccc2cccc(CCNC(=O)/C=C/C(=O)O)c2c1 equals 1.54

The compound COc1ccc2cccc(CCNC(=O)CC3(CC(=O)O)CCCC3)c2c1 showed logP equal to -1.17

Recorded logP (compound COc1ccc2cccc(CCN3C(=O)CC(C)(C)CC3=O)c2c1 ): 2.78

Sample COc1ccc2cccc(CCNC(=O)N3CCN(C)CC3)c2c1 ; logP observed: 1.88

Note to self: logP recorded for COc1ccc2cccc(CCNC(=O)N(C)CCO)c2c1 was 1.12

# compound COc1ccc2cccc(CCN3C(=O)CCC3=O)c2c1 ; its logP = 1.87

The recorded logP for COc1ccc2cccc(CCNC(=O)N3CCC(c4ccccc4)CC3)c2c1 is 2.05

Quick note, logP for COc1ccc2cccc(CCNC(=O)/C(C)=C(\C)C(=O)O)c2c1 landed at 2.01

The compound listed as COc1ccc2cccc(CCNC(=O)CC(C)(C)CC(=O)O)c2c1 shows logP equal to 1.75

Memo: COc1ccc2cccc(CCNC(=O)/C(Cl)=C(\Cl)C(=O)O)c2c1 , reported logP: 1.18

COc1ccc2cccc(CCN3C(=O)C(C)=C(C)C3=O)c2c1 has a reported logP of 1.53

logP reading for CCN1CCN(C(=O)NCCc2cccc3ccc(OC)cc23)CC1 : 1.35

Lookup result for COc1ccc2cccc(CCN3C(=O)c4ccc(Br)cc4C3=O)c2c1 ; measured logP: 2.57

Data point: COc1ccc2cccc(CCNC(=O)CCC(=O)O)c2c1 ; logP = 1.35

# compound COc1ccc2cccc(CCN3C(=O)C(Cl)=C(Cl)C3=O)c2c1 ; its logP = 1.99

response.value for COc1ccc2cccc(CCNC(C)=O)c2c1 (field: logP) = 1.62

logP reported for this compound COc1ccc2cccc(CCNC(=O)N3CCCC3)c2c1 : -0.52

From: ChEMBL document CHEMBL3232775
